Molecular target: T1, PUF4 RNA-binding domain (Saccharomyces cerevisiae, UniProt P25339 537-888)
T1 sequence: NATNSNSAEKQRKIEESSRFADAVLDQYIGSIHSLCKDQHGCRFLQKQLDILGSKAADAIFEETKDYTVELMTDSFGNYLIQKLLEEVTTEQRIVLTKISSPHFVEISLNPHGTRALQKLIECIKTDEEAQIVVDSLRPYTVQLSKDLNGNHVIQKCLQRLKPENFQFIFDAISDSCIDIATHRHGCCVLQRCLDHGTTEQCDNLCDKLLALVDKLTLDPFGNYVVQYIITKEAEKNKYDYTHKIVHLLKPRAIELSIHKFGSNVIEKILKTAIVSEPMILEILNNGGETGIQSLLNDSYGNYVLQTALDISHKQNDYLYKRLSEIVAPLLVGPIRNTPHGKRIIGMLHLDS
Assay: Mg; RNA-MaP; 20 mM Na-HEPES pH 7.4, 30 mM KOAc, 0.75 mM MgCl2, 0.1% Tween-20, 5% glycerol, 0.1 mg/mL BSA, 2 mM DTT; 25 C; 0.0125-409.6 nM protein
Conditions: tags: N-His6-TEV cleaved; C-SNAP kept, Cy3B-labelled; label: tethered on chip by stalled RNA polymerase
Measured Metric: log10 Kd (log10 of the value in nM)

UCUCUUCGUAUAUAUAGCUCUCUU (ssRNA) [Id_ii_S1_P3E.3_K3.2_C3.2_[T-1G]_H3.2_A3.1_F3.1_T3.2_[T9G]_[A10C]] ... 2.62
Id_ii_S4_P3E.3_K3.2_C3.2_[C-2T]_[T-1A]_H3.2_A3.1_F3.1_T3.2_[T9C] (ssRNA) RNA: UUUGACAACUGAUCGUUCUUUCUUAUAUAUAUACAUUCUUUCUCGAUCAGUUGUCUUU ... 1.98
UCUCUUUGUUUUACUAUCUCUU (ssRNA) [Ib_S1_P5E.1_K5.1_C5.1_H5.1_[A4T]_A5.1_F5.1_[T8C]_T5.1] ... 1.78
UCUCUUCUUCCUUGUAUAUAUAUCUCUU (ssRNA) [Ie_S1_P3E.2_K3.1_C3.2_[+-2TTCC]_H3.1_A3.1_F3.1_T3.2] ... 0.78
UCUCUUACUGUAUAUUACCUCUCUU (ssRNA) [Id_ii_S1_P4E.2_K4.1_C4.2_[C-2A]_[T-1C]_H4.1_A4.1_F4.1_T4.2_[G10C]_[T11C]] ... 0.23
ACAAACGUACACUUAUUAUCACAAAC (ssRNA) [Id_ii_S3_P5E.4_K5.3_C5.2_[C-2G]_H5.3_A5.1_F5.1_T5.2_[A12C]] ... 3.07
UCUCUUAGUGUAUAUAUGUCUCUU (ssRNA) [Id_ii_S1_P3E.2_K3.1_C3.2_[C-2A]_[T-1G]_H3.1_A3.1_F3.1_T3.2_[A10G]] ... 1.04
UCUCUUGUUGUAUUAUUAUCUCUCUU (ssRNA) [Id_ii_S1_P5E.2_K5.1_C5.2_[C-2G]_H5.1_A5.1_F5.1_T5.2_[A12C]] ... 0.83
Ic_S4_P3E.1_K3.1_C3.1_H3.1_A3.1_[A6G]_F3.1_[T7C]_[A8T]_T3.1 (ssRNA) RNA: UUUGACAACUGAUCGUUCUUUCUUGUAUGCUUUCUUUCUCGAUCAGUUGUCUUU ... 1.74
Ic_S2_P3E.1_K3.1_C3.1_H3.1_A3.1_[T5C]_[A6C]_F3.1_[T7A]_T3.1 (ssRNA) RNA: UUUGAUUAAUAUGAUAUCGUUCUUUCUUGUACCAAUUCUUUCUCGAUAUCAUAUUAAUCUUU ... 1.48
UCUCUUCCCCUUUGUAUAUAUAUCUCUU (ssRNA) [Ie_S1_P3E.2_K3.1_C3.2_[+-2CCCT]_H3.1_A3.1_F3.1_T3.2] ... 0.57
